All values here come from ChEMBL document CHEMBL1933022.

Target: Alpha-amylase 1A (Homo sapiens) (UniProt P0DUB6)
Sequence (P0DUB6 whole entry): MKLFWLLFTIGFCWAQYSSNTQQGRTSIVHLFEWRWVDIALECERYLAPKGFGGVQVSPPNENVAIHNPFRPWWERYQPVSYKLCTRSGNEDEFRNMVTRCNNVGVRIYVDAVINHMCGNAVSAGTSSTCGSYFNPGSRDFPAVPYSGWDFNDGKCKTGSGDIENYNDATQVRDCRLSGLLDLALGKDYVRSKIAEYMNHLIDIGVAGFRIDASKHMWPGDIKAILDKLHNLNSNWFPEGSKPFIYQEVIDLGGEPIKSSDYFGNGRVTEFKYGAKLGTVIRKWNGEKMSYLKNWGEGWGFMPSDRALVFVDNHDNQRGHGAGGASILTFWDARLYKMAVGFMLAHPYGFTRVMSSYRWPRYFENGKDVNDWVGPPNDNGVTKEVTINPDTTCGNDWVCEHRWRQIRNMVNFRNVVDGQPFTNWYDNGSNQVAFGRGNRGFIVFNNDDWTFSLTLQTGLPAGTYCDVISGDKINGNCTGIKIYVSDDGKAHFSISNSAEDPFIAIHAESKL
Test: Activity of human saliva alpha-amylase assessed as decrease in fluorescence intensity measured for every 3 mins for 30 mins by FRET analysis
Calls of active or inactive are those of the source. The rule behind the calls is not given here.
A correct response names exactly one class from active, inactive

1. CN(C)c1cccc2c(S(=O)(=O)NCCSCCCCCS[C@@H]3O[C@H](CO)[C@@H](O[C@H]4O[C@H](CO)[C@@H](O[C@H]5O[C@H](COCc6ccc7ccccc7c6)[C@@H](O)[C@H](O)[C@H]5O)[C@H](O)[C@H]4O)[C@H](O)[C@H]3O)cccc12 : inactive
2. CN(C)c1cccc2c(S(=O)(=O)NCCSCCCCCS[C@@H]3O[C@H](CO)[C@@H](O[C@H]4O[C@H](CO)[C@@H](O[C@H]5O[C@H](CO)[C@@H](O[C@H]6O[C@H](CO)[C@@H](O[C@H]7O[C@H](COCc8ccc9ccccc9c8)[C@@H](O)[C@H](O)[C@H]7O)[C@H](O)[C@H]6O)[C@H](O)[C@H]5O)[C@H](O)[C@H]4O)[C@H](O)[C@H]3O)cccc12 : active
3. CN(C)c1cccc2c(S(=O)(=O)NCCSCCCCCS[C@@H]3O[C@H](CO)[C@@H](O[C@H]4O[C@H](CO)[C@@H](O[C@H]5O[C@H](CO)[C@@H](O[C@H]6O[C@H](COCc7ccc8ccccc8c7)[C@@H](O)[C@H](O)[C@H]6O)[C@H](O)[C@H]5O)[C@H](O)[C@H]4O)[C@H](O)[C@H]3O)cccc12 : active

Test call, this compound: `CN(C)c1cccc2c(S(=O)(=O)NCCSCCCCCS[C@@H]3O[C@H](CO)[C@@H](O[C@H]4O[C@H](CO)[C@@H](O[C@H]5O[C@H](CO)[C@@H](O[C@H]6O[C@H](CO)[C@@H](O[C@H]7O[C@H](CO)[C@@H](O[C@H]8O[C@H](CO)[C@@H](O[C@H]9O[C@H](COCc%10ccc%11ccccc%11c%10)[C@@H](O)[C@H](O)[C@H]9O)[C@H](O)[C@H]8O)[C@H](O)[C@H]7O)[C@H](O)[C@H]6O)[C@H](O)[C@H]5O)[C@H](O)[C@H]4O)[C@H](O)[C@H]3O)cccc12`
active

Name the outcome recorded for `CN(C)c1cccc2c(S(=O)(=O)NCCSCCCCCS[C@@H]3O[C@H](CO)[C@@H](O[C@H]4O[C@H](COCc5ccc6ccccc6c5)[C@@H](O)[C@H](O)[C@H]4O)[C@H](O)[C@H]3O)cccc12` in the assay.
inactive

# fetch the recorded call for `CN(C)c1cccc2c(S(=O)(=O)NCCSCCCCCS[C@@H]3O[C@H](CO)[C@@H](O[C@H]4O[C@H](CO)[C@@H](O[C@H]5O[C@H](CO)[C@@H](O[C@H]6O[C@H](CO)[C@@H](O[C@H]7O[C@H](CO)[C@@H](O[C@H]8O[C@H](COCc9ccc%10ccccc%10c9)[C@@H](O)[C@H](O)[C@H]8O)[C@H](O)[C@H]7O)[C@H](O)[C@H]6O)[C@H](O)[C@H]5O)[C@H](O)[C@H]4O)[C@H](O)[C@H]3O)cccc12` here
active
